These entries and their values trace back to PubChem BioAssay (NCI).

List of TGI values.
Tested on: HOP-62 NSCLC
PROCEDURE_DETAILS: NCI tumour cell line growth inhibition, 384-well format
EXPERIMENTAL_READOUT: TGI (µM)

COMPOUND	QUAL	REPORTED
O=[N+]([O-])c1ccc(Nc2ccccc2-c2ccccc2)c2nonc12	=	28.4
CN1CCN(c2ccc(C(=O)Nc3n[nH]c4ccc(Cc5cc(F)cc(F)c5)cc34)c(NC3CCOCC3)c2)CC1	=	2.75
Cc1nc2ccc(CN(C)c3ccc(C(=O)N[C@@H](CCC(=O)O)C(=O)O)s3)cc2c(=O)[nH]1	=	0.0195
Cc1[nH]ncc1-c1cc2nc(C3CC4CCN3CC4)[nH]c(=O)c2s1 (stereo not given)	=	16.1
CN1CCc2cc3c(cc2C1O)OCO3 (stereo not given)	>	100

---

Test system: EKVX NSCLC
PROCEDURE_DETAILS: NCI tumour cell line growth inhibition, 384-well format
This listing pairs molecules with measured TGI.
EXPERIMENTAL_READOUT: TGI

MOLECULE	REPORTED
Cc1nc2ccc(CN(C)c3ccc(C(=O)N[C@@H](CCC(=O)O)C(=O)O)s3)cc2c(=O)[nH]1	> 100 µM
Cc1[nH]ncc1-c1cc2nc(C3CC4CCN3CC4)[nH]c(=O)c2s1 (stereo not given)	42.9 µM
CN1CCc2cc3c(cc2C1O)OCO3 (stereo not given)	> 100 µM
CNC(=O)c1cc(COc2nnc(Nc3ccc(Cl)cc3)c3ccoc23)ccn1	26.8 µM
Cc1ccc(C(=O)N(CCCN)[C@@H](c2nc3cc(Cl)ccc3c(=O)n2Cc2ccccc2)C(C)C)cc1	1.22 µM

---

Test system: SN12C renal
PROCEDURE_DETAILS: NCI tumour cell line growth inhibition, 384-well format; in the data active = GI50 below about 0.43 µM; inactive = the rest
Possible outcomes: active, inactive

COMPOUND	SYSTEM_NAME	ASSIGNED_CLASS
CNC(=O)c1cc(COc2nnc(Nc3ccc(Cl)cc3)c3ccoc23)ccn1	SN12C renal	inactive
Cc1ccc(C(=O)N(CCCN)[C@@H](c2nc3cc(Cl)ccc3c(=O)n2Cc2ccccc2)C(C)C)cc1	SN12C renal	active
O=[N+]([O-])c1ccc(Nc2ccccc2-c2ccccc2)c2nonc12	SN12C renal	inactive
Cc1[nH]ncc1-c1cc2nc(C3CC4CCN3CC4)[nH]c(=O)c2s1 (stereo not given)	SN12C renal	inactive
CN1CCN(c2ccc(C(=O)Nc3n[nH]c4ccc(Cc5cc(F)cc(F)c5)cc34)c(NC3CCOCC3)c2)CC1	SN12C renal	inactive

---

Tested on: SK-MEL-5 melanoma
PROCEDURE_DETAILS: NCI tumour cell line growth inhibition, 384-well format; in the data active = GI50 below about 0.43 µM; inactive = the rest
Possible outcomes: active, inactive

COMPOUND	SYSTEM_NAME	ASSIGNED_CLASS
Cc1ccc(C(=O)N(CCCN)[C@@H](c2nc3cc(Cl)ccc3c(=O)n2Cc2ccccc2)C(C)C)cc1	SK-MEL-5 melanoma	active
CN1CCc2cc3c(cc2C1O)OCO3 (stereo not given)	SK-MEL-5 melanoma	inactive
Cc1[nH]ncc1-c1cc2nc(C3CC4CCN3CC4)[nH]c(=O)c2s1 (stereo not given)	SK-MEL-5 melanoma	inactive
CC(C)[C@](O)(c1ccc2cc(OC(F)F)c(OC(F)F)cc2c1)c1cn[nH]n1	SK-MEL-5 melanoma	inactive
CN1CCN(c2ccc(C(=O)Nc3n[nH]c4ccc(Cc5cc(F)cc(F)c5)cc34)c(NC3CCOCC3)c2)CC1	SK-MEL-5 melanoma	inactive

---

# Lookup of reported TGI keyed by entry
Test system: MDA-MB-435 melanoma
PROCEDURE_DETAILS: NCI tumour cell line growth inhibition, 384-well format
EXPERIMENTAL_READOUT: TGI (µM)

COMPOUND	EXPERIMENTAL_READOUT	QUAL	REPORTED
CN1CCN(c2ccc(C(=O)Nc3n[nH]c4ccc(Cc5cc(F)cc(F)c5)cc34)c(NC3CCOCC3)c2)CC1	TGI	=	3.07
Cc1nc2ccc(CN(C)c3ccc(C(=O)N[C@@H](CCC(=O)O)C(=O)O)s3)cc2c(=O)[nH]1	TGI	>	100
Cc1[nH]ncc1-c1cc2nc(C3CC4CCN3CC4)[nH]c(=O)c2s1 (centres undefined)	TGI	=	28
CNC(=O)c1cc(COc2nnc(Nc3ccc(Cl)cc3)c3ccoc23)ccn1	TGI	=	37.5

---

System: OVCAR-8 ovarian
PROCEDURE_DETAILS: NCI tumour cell line growth inhibition, 384-well format
EXPERIMENTAL_READOUT: TGI (µM)

MOLECULE	QUAL	REPORTED
CN1CCc2cc3c(cc2C1O)OCO3 (centres undefined)	>	100
CN1CCN(c2ccc(C(=O)Nc3n[nH]c4ccc(Cc5cc(F)cc(F)c5)cc34)c(NC3CCOCC3)c2)CC1	=	3.04
CC(C)[C@](O)(c1ccc2cc(OC(F)F)c(OC(F)F)cc2c1)c1cn[nH]n1	=	30
Cc1ccc(C(=O)N(CCCN)[C@@H](c2nc3cc(Cl)ccc3c(=O)n2Cc2ccccc2)C(C)C)cc1	=	1.2

---

Tested on: HT29 colon
PROCEDURE_DETAILS: NCI tumour cell line growth inhibition, 384-well format; in the data active = GI50 below about 0.43 µM; inactive = the rest
Classes used: active, inactive

COMPOUND	ASSIGNED_CLASS
Cc1nc2ccc(CN(C)c3ccc(C(=O)N[C@@H](CCC(=O)O)C(=O)O)s3)cc2c(=O)[nH]1	active
CN1CCN(c2ccc(C(=O)Nc3n[nH]c4ccc(Cc5cc(F)cc(F)c5)cc34)c(NC3CCOCC3)c2)CC1	inactive
Cc1ccc(C(=O)N(CCCN)[C@@H](c2nc3cc(Cl)ccc3c(=O)n2Cc2ccccc2)C(C)C)cc1	active
Cc1[nH]ncc1-c1cc2nc(C3CC4CCN3CC4)[nH]c(=O)c2s1 (centres undefined)	inactive

---

Test system: MDA-MB-435 melanoma
Labels: TRUE for active, FALSE for inactive

MOLECULE	ASSIGNED_CLASS
Cc1ccc(C(=O)N(CCCN)[C@@H](c2nc3cc(Cl)ccc3c(=O)n2Cc2ccccc2)C(C)C)cc1	TRUE
Cc1[nH]ncc1-c1cc2nc(C3CC4CCN3CC4)[nH]c(=O)c2s1 (stereo not given)	FALSE
O=[N+]([O-])c1ccc(Nc2ccccc2-c2ccccc2)c2nonc12	FALSE
CNC(=O)c1cc(COc2nnc(Nc3ccc(Cl)cc3)c3ccoc23)ccn1	FALSE
CN1CCc2cc3c(cc2C1O)OCO3 (stereo not given)	FALSE

---

System: NCI-H226 lung
PROCEDURE_DETAILS: NCI tumour cell line growth inhibition, 384-well format

COMPOUND	GI50
CN1CCc2cc3c(cc2C1O)OCO3 (stereo not given)	> 100 µM
CC(C)[C@](O)(c1ccc2cc(OC(F)F)c(OC(F)F)cc2c1)c1cn[nH]n1	21 µM
CN1CCN(c2ccc(C(=O)Nc3n[nH]c4ccc(Cc5cc(F)cc(F)c5)cc34)c(NC3CCOCC3)c2)CC1	0.727 µM
CNC(=O)c1cc(COc2nnc(Nc3ccc(Cl)cc3)c3ccoc23)ccn1	15.2 µM
O=[N+]([O-])c1ccc(Nc2ccccc2-c2ccccc2)c2nonc12	11.2 µM

---

Test system: HOP-92 NSCLC
PROCEDURE_DETAILS: NCI tumour cell line growth inhibition, 384-well format; in the data active = GI50 below about 0.43 µM; inactive = the rest
Labels: yes (1) (active), no (0) (inactive)

SMILES_ENTRY	SYSTEM_NAME	ASSIGNED_CLASS
CN1CCN(c2ccc(C(=O)Nc3n[nH]c4ccc(Cc5cc(F)cc(F)c5)cc34)c(NC3CCOCC3)c2)CC1	HOP-92 NSCLC	no (0)
CNC(=O)c1cc(COc2nnc(Nc3ccc(Cl)cc3)c3ccoc23)ccn1	HOP-92 NSCLC	no (0)
Cc1ccc(C(=O)N(CCCN)[C@@H](c2nc3cc(Cl)ccc3c(=O)n2Cc2ccccc2)C(C)C)cc1	HOP-92 NSCLC	yes (1)
CC(C)[C@](O)(c1ccc2cc(OC(F)F)c(OC(F)F)cc2c1)c1cn[nH]n1	HOP-92 NSCLC	no (0)
O=[N+]([O-])c1ccc(Nc2ccccc2-c2ccccc2)c2nonc12	HOP-92 NSCLC	no (0)

---

Tested on: UACC-257 melanoma
PROCEDURE_DETAILS: NCI tumour cell line growth inhibition, 384-well format

COMPOUND	QUAL	TGI / µM
Cc1[nH]ncc1-c1cc2nc(C3CC4CCN3CC4)[nH]c(=O)c2s1 (stereo not given)	=	43.8
CNC(=O)c1cc(COc2nnc(Nc3ccc(Cl)cc3)c3ccoc23)ccn1	=	20.8
CC(C)[C@](O)(c1ccc2cc(OC(F)F)c(OC(F)F)cc2c1)c1cn[nH]n1	=	30.6
CN1CCc2cc3c(cc2C1O)OCO3 (stereo not given)	>	100
Cc1nc2ccc(CN(C)c3ccc(C(=O)N[C@@H](CCC(=O)O)C(=O)O)s3)cc2c(=O)[nH]1	>	100

---

System: EKVX NSCLC
PROCEDURE_DETAILS: NCI tumour cell line growth inhibition, 384-well format
EXPERIMENTAL_READOUT: GI50

COMPOUND	EXPERIMENTAL_READOUT	REPORTED
Cc1[nH]ncc1-c1cc2nc(C3CC4CCN3CC4)[nH]c(=O)c2s1 (centres undefined)	GI50	5.93 µM
Cc1nc2ccc(CN(C)c3ccc(C(=O)N[C@@H](CCC(=O)O)C(=O)O)s3)cc2c(=O)[nH]1	GI50	> 100 µM
O=[N+]([O-])c1ccc(Nc2ccccc2-c2ccccc2)c2nonc12	GI50	13.2 µM
CN1CCc2cc3c(cc2C1O)OCO3 (centres undefined)	GI50	> 100 µM
